Hello, the source for this data is ChEMBL document CHEMBL5058577, in case you need it.

Test system: U2OS
Assay: Multiplex assay against U2OS
Format: toxicity, cell-based
Conditions: human, 48 h, 10 µM, compound concentration 10 uM, replicate 1
Non-standard residues stand in square brackets, D forms with d. Residues, ends and D or L forms follow the SMILES beside them.
Recorded Metric: Total Cell Count
Lab note: write the figure by itself, no unit.

Below: 3 compounds and their reported Total Cell Count.
1. CC(C)C[C@@H]1NC(=O)[C@@H](C(C)C)NC(=O)[C@@H]2CCCN2C(=O)[C@@H](CC(=O)O)NC(=O)[C@@H](Cc2c[nH]c3ccccc23)NC1=O [BQ-123] (cyclo(L[dW][dD]P[dV]))	435
2. COc1cc2nc(N3CCN(C(=O)c4ccco4)CC3)nc(N)c2cc1OC.Cl [PRAZOSIN HYDROCHLORIDE]	341
3. Cc1cc(NC(=O)NCCN2CCC(O)(Cc3ccccc3)CC2)c2ccccc2n1	421

Which Total Cell Count reading was recorded for the compound Cl.Cl.OCCOCCN1CCN(C(c2ccccc2)c2ccc(Cl)cc2)CC1 (stereo not given) [HYDROXYZINE HYDROCHLORIDE] ?
456

Using the record for C[C@H](NC(=O)CNC(=O)c1cccc(Cl)c1)c1ccccc1 , report its Total Cell Count.
311

Query (compound): COc1ccc2c(c1OCc1ccccc1)C[C@@H](C(=O)O)N(C(=O)C(c1ccccc1)c1ccccc1)C2 ; field requested: Total Cell Count
451

Fill in: Total Cell Count of Cc1cc(O)c(-c2ccc([C@@H](C)CN(C)C)cc2)c2c1[nH]c(=O)c1sccc12 is ___
220

Quick one: Total Cell Count for CCc1nn2c(C)cc(C)nc2c1Cc1ccc(-c2nnc(C3CCNCC3)o2)cc1 ?
290

====

Test system: HEK-293T
Assay: Multiplex assay against HEK293T
Assay type: toxicity, cell-based
Conditions: human, 12 h, 10 µM, compound concentration 10 uM, replicate 2
Classify by measured Population Normal (%): 1 (yes) if it is equal to or exceeds 90%, 0 (no) if it is smaller.

Worked cases, answers included:
1. COc1cc2nc(N3CCN(C(=O)COc4c(OC)cccc4C(C)C)CC3)nc(N)c2cc1OC.Cl.Cl	0 (no)
2. COc1cc(OC2CCN(C(C)=O)CC2)ccc1C(=O)N1CCC(N2C(=O)OCc3ccccc32)CC1	1 (yes)

Moving on to another compound below.
Quick check, Population Normal (%) >= 90%? CN(C)C/C=C/C(=O)Nc1ccc(C(=O)N2CCCC(Nc3ncc(Cl)c(-c4c[nH]c5ccccc45)n3)C2)cc1 (stereo not drawn)
0 (no)

====

Below: a set of entries, each annotated with reported Population Healthy Nuclei (%).
Tested on: Fibroblast
Assay: Multiplex assay against human fibroblast
Type: toxicity, cell-based
Details: 12 h, 1 µM, compound concentration 1 uM, replicate 2
Expressed in %, but write only the number.

A selection of reference data follows.
1. Cn1cc(C(=O)OCC2CCN(CCNS(C)(=O)=O)CC2)c2ccccc21	46
2. S=C(NCCCc1c[nH]cn1)NCCCN(Cc1ccc(Cl)c(Cl)c1)c1ccc(Br)cn1	50
3. Cc1cc(-c2ccc3c(c2)CC[C@H]3N2CC3(CCN(C(=O)Cc4cn5cc(C)sc5n4)CC3)C2)ncn1 [PF-5190457]	46

# get_value(readout= Population Healthy Nuclei (%), system= Fibroblast) for CN1CCN(c2ccc(Nc3c4ccccc4nc4ccccc34)cc2)CC1.Cl.Cl.O
56

I'm curious: which Population Healthy Nuclei (%) was measured for CN(C)C(=O)Cn1cc(-c2ccc(-c3nnc4ccccn34)cc2)cn1 tested on Fibroblast?
58

====

Tested on: HEK-293T
Assay: Multiplex assay against HEK293T
Format: toxicity, cell-based
Settings: human, 24 h, 1 µM, compound concentration 1 uM, replicate 2
// assign yes (1) if Population Mitotic Cells (%) falls strictly below 60%, else no (0) (ties count as no (0))

1) Cc1ccc(OCC(O)C(C)NC(C)C)c2c1CCC2.Cl (configuration not stated)	no (0)
2) COc1cc2nc(N3CCN(C(=O)COc4c(OC)cccc4C(C)C)CC3)nc(N)c2cc1OC.Cl.Cl	yes (1)
3) C[C@H](NC(=O)CNC(=O)c1cccc(Cl)c1)c1ccccc1	yes (1)
4) Cc1cc(NC(=O)NCCN2CCC(O)(Cc3ccccc3)CC2)c2ccccc2n1	yes (1)
5) O=C(NCCNCC(O)COc1ccc(O)cc1)N1CCOCC1.O=C(NCCNCC(O)COc1ccc(O)cc1)N1CCOCC1.O=C(O)/C=C/C(=O)O (configuration not stated) [XAMOTEROL FUMARATE]	yes (1)
6) CC(F)(F)CN1CCOc2c(nn(-c3ccccc3Cl)c2-c2ccc(Cl)cc2)C1=O	yes (1)

Turning now to a further compound:
Please state whether Population Mitotic Cells (%) is below 60% for CCCCCCNC(=O)Nc1ccc(S(=O)(=O)Nc2ccc(CCNC[C@H](O)COc3ccc(O)cc3)cc2)cc1
no (0)

====

# Population Normal (%) per entry
System: HEK-293T
Test: Multiplex assay against HEK293T
Assay type: toxicity, cell-based
Conditions: human, 24 h, 1 µM, compound concentration 1 uM, replicate 2
Give your result in % as a bare value.

For orientation, consider the following solved cases.
1) COc1cc(C(=O)N2CC[C@@H](O)[C@@H](N)C2)cc2nc(-c3cc4ccccc4n3CC3CC3)n(C)c12.Cl	87
2) Cc1nn(C)c2nc(NNC(=O)Nc3cc(Cl)nc(Cl)c3)cc(C(C)C)c12	98
3) Cc1cc(NC(=O)NCCN2CCC(O)(Cc3ccccc3)CC2)c2ccccc2n1 [PALOSURAN]	95
4) Nc1nc(CC(=O)Nc2ccc(CCNC[C@H](O)c3ccccc3)cc2)cs1 [MIRABEGRON]	96

// Population Normal (%) lookup, key: CSc1nc(NC2CCCC2)c([N+](=O)[O-])c(NC2CCCC2)n1 [GS-39783]
91

====

System: Fibroblast
Test: Multiplex assay against human fibroblast
Format: toxicity, cell-based
Conditions: 48 h, 10 µM, compound concentration 10 uM, replicate 1
Hi all, reminder that labels come from Population Tubulin-Different-Phenotype (%), split as lower segment = under 40%, middle segment = from 40% up to 70%, upper segment = 70% and over

As a guide, the following entries are already answered.
1. COC(c1ccccc1)(c1ccccc1)[C@H](Oc1nc(C)cc(C)n1)C(=O)O	lower segment
2. O=C(Nc1cc(-c2ccccc2)nn1-c1ccccc1F)c1ccc([N+](=O)[O-])cc1	middle segment
3. O=c1ccc2ccc(OCCCCN3CCN(c4cccc5sccc45)CC3)cc2[nH]1	upper segment
4. O=C(NCCNCC(O)COc1ccc(O)cc1)N1CCOCC1.O=C(NCCNCC(O)COc1ccc(O)cc1)N1CCOCC1.O=C(O)/C=C/C(=O)O (stereo not drawn) [XAMOTEROL FUMARATE]	lower segment
5. COc1cc(Nc2ncc3c(n2)-c2ccc(Cl)cc2C(c2c(F)cccc2OC)=NC3)ccc1C(=O)O	upper segment
6. CN(C)C/C=C/C(=O)Nc1ccc(C(=O)N2CCCC(Nc3ncc(Cl)c(-c4c[nH]c5ccccc45)n3)C2)cc1 (stereo not drawn)	middle segment

Which bin should I file CCCCC[C@H](O)/C=C/[C@H]1[C@H](O)CC(=O)[C@@H]1CCCCCCC(=O)O under?
lower segment

Hi, small favor: classify Cn1cc(C(=O)OCC2CCN(CCNS(C)(=O)=O)CC2)c2ccccc21 by its Population Tubulin-Different-Phenotype (%) when you get a moment.
middle segment

Band for the recorded Population Tubulin-Different-Phenotype (%) of Cc1c(Cc2ccc3ccccc3n2)c2cc(F)ccc2n1CC(=O)O ?
lower segment

# bin lookup: classify COc1ccc2[nH]c(I)c(CCNC(C)=O)c2c1 by its Population Tubulin-Different-Phenotype (%)
lower segment

Consider Cc1cc(NC(=O)NCCN2CCC(O)(Cc3ccccc3)CC2)c2ccccc2n1 . To which Population Tubulin-Different-Phenotype (%) class does it belong?
lower segment

====

Entries and their Population Hoechst High Intensity Objects (%)
System: Fibroblast
Assay: Multiplex assay against human fibroblast
Type: toxicity, cell-based
Details: 12 h, 1 µM, compound concentration 1 uM, replicate 1
Kindly provide the numeric value in % only, without the unit symbol.

Worked cases, answers included:
1) O=C(Nc1cc(-c2ccccc2)nn1-c1ccccc1F)c1ccc([N+](=O)[O-])cc1	2
2) CN1C[C@H](C(=O)N[C@]2(C)O[C@@]3(O)[C@@H]4CCCN4C(=O)[C@H](Cc4ccccc4)N3C2=O)C[C@@H]2c3cccc4[nH]cc(c34)C[C@H]21.CS(=O)(=O)O [DIHYDROERGOTAMINE MESYLATE]	1
3) CCCCCCNC(=O)Nc1ccc(S(=O)(=O)Nc2ccc(CCNC[C@H](O)COc3ccc(O)cc3)cc2)cc1	1

Value wanted: Population Hoechst High Intensity Objects (%) (Fibroblast) of entry Cc1cc(O)c(-c2ccc([C@@H](C)CN(C)C)cc2)c2c1[nH]c(=O)c1sccc12
7
